Quick reference for Papp A→B at 1 h, 10 µM among some compounds
- assay_text: Apparent permeability from apical to basolateral side in MDCK cells at 10 uM after 1 hr by LC/MS analysis
- Type: ADME, cell-based, Canis lupus familiaris
- experimental_setup: dog
Answer format: numeric, ×10⁻⁶ cm/s implied, no suffix.

Here are 3 compounds together with their reported answers.
O=C1/C(=C/c2ccccc2)CNC/C1=C\c1ccccc1 | 5.74
CCN(CC)CCCC(C)Nc1ccnc2cc(Cl)ccc12 (centres undefined) | 13
O=C1/C(=C/c2ccc([N+](=O)[O-])cc2)CNC/C1=C\c1ccc([N+](=O)[O-])cc1 | 0.28

Next up:
Using the record for O[C@@H](c1cc(C(F)(F)F)nc2c(C(F)(F)F)cccc12)[C@H]1CCCCN1 (relative stereo) [(S,R)-MEFLOQUINE] , state its measured Papp A→B at 1 h, 10 µM. 0.6
